- target or test system: KDR(h) (Homo sapiens)
- Construct: purchased Millipore
- Sequence (P35968 20-1356): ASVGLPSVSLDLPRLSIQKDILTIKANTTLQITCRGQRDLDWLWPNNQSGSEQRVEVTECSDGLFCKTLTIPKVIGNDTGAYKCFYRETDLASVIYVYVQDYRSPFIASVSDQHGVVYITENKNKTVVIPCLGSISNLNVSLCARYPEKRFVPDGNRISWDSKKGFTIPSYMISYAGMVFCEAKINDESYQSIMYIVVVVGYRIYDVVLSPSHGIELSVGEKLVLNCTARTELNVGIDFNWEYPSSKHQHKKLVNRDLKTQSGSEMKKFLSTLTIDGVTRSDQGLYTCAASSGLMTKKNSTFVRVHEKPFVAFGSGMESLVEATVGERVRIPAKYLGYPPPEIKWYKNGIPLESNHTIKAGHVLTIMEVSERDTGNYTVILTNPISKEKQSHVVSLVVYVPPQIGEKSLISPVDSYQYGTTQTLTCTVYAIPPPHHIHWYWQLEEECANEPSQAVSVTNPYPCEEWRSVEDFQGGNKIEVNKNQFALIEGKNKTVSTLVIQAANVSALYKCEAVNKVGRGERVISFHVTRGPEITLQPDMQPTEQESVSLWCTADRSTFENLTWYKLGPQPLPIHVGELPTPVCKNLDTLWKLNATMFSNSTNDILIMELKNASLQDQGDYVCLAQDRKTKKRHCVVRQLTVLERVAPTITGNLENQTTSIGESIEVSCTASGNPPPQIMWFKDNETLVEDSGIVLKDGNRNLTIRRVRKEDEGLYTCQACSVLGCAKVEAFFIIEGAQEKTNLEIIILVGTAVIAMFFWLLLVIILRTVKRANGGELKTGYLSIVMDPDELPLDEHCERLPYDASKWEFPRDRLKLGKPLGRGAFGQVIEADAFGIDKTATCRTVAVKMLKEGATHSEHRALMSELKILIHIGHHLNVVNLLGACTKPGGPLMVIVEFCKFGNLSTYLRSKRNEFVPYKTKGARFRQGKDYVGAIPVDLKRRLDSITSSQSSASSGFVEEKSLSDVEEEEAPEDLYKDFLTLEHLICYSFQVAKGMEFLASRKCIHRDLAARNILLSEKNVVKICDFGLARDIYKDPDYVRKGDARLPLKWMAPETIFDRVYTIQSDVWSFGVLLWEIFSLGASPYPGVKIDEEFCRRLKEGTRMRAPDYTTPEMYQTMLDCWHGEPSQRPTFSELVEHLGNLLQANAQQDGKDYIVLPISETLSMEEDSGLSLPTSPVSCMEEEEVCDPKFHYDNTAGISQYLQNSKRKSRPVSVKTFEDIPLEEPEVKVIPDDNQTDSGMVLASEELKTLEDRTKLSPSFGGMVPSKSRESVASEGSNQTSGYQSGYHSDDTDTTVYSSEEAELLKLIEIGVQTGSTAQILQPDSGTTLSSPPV
- protocol notes: Kinase Profiling Assay
- Type: biochemical
- experimental context: peptide 100 μM
No end group written: not given here.
Please assign false whenever % activity is at or above 90%, and true whenever it is below.

[in] Lab note: % activity threshold 90%. Does this sequence come in strictly under it? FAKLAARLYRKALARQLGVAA [MMI-0300]
[out] false

[in] Request: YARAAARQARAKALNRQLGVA (Mammal) [MMI-0200]
[out] false

[in] Request: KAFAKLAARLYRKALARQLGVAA [MMI-0400]
[out] false

[in] Request: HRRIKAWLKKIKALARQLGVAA (Mammal) [MMI-0500]
[out] true

[in] Request: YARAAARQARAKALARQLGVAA [MMI-0100]
[out] false

###

- target or test system: PDK1(h) (Homo sapiens)
- Sequence (O15530 1-556): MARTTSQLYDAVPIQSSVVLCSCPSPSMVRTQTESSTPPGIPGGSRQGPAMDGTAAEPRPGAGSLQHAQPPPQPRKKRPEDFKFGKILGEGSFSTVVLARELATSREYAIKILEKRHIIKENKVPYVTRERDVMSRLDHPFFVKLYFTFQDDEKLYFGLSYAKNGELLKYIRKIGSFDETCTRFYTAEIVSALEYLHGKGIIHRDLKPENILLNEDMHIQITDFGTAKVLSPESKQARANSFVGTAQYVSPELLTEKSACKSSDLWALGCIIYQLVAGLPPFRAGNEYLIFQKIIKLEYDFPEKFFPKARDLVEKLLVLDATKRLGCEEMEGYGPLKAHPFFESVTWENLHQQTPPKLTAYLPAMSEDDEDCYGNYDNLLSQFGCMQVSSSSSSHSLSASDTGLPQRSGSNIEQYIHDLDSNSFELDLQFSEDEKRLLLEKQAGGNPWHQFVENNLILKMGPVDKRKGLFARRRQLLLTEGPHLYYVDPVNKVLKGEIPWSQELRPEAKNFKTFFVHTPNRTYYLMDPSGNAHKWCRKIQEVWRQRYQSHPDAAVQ
- protocol notes: Kinase Profiling Assay
- Format: biochemical
- experimental context: peptide 100 μM
assay endpoint: % activity (%)
Give the value in % but do not write % after it.

[in] % activity for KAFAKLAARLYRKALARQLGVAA [MMI-0400] ?
[out] 159

[in] Request: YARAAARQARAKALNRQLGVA (Mammal) [MMI-0200]
[out] 143

[in] Request: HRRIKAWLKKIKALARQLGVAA (Mammal) [MMI-0500]
[out] 178

[in] Request: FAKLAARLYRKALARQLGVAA [MMI-0300]
[out] 135

###

Would you mind telling me the reported % activity of each entry?
- target or test system: cKit(h) (Homo sapiens, UniProt P10721)
- protocol notes: Kinase Profiling Assay
- Type: biochemical
- experimental context: peptide 100 μM
No end group written: not given here.
Give the value in % but do not write % after it.

[in] State its % activity on cKit(h) (Homo sapiens, UniProt P10721): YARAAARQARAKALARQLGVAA [MMI-0100]
[out] 95

[in] Request: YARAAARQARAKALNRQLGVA (Mammal) [MMI-0200]
[out] 110

[in] Request: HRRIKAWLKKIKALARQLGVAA (Mammal) [MMI-0500]
[out] 45

[in] Request: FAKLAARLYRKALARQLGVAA [MMI-0300]
[out] 53

[in] Request: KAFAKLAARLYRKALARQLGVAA [MMI-0400]
[out] 43

###

- target or test system: MLK1(h) (Homo sapiens)
- Construct: purchased Millipore
- Sequence (P80192 whole entry): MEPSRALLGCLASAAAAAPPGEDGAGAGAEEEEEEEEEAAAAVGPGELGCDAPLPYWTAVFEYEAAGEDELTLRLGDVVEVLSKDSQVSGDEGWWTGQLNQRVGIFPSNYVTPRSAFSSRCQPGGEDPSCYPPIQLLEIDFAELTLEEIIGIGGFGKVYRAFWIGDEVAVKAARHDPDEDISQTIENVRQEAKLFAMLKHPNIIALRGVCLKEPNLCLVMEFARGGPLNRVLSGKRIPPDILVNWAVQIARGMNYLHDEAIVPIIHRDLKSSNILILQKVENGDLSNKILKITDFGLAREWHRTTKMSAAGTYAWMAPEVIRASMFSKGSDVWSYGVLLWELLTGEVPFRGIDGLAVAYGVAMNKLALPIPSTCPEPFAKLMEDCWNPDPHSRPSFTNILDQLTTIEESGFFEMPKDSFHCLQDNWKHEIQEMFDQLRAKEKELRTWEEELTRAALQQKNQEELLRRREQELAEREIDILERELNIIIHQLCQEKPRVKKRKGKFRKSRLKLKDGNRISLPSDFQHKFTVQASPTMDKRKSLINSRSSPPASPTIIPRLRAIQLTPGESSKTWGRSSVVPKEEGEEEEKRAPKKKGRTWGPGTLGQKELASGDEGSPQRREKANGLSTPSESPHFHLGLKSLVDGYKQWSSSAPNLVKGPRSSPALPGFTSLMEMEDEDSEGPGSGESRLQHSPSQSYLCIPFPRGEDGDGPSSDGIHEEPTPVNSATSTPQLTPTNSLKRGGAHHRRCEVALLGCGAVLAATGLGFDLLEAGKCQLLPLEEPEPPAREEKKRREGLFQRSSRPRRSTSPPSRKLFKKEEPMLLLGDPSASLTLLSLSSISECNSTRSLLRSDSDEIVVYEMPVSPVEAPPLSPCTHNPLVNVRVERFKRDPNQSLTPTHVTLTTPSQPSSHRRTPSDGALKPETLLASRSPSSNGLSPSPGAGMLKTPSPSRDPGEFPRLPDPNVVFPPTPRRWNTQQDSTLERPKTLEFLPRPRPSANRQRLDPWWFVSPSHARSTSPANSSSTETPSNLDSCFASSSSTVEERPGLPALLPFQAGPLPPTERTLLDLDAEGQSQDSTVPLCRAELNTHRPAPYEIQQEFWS
- protocol notes: Kinase Profiling Assay
- Type: biochemical
- experimental context: peptide 100 μM
No end group written: not given here.
assay endpoint: % activity (%)
Give the value in % but do not write % after it.

[in] % activity for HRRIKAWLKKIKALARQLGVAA (Mammal) [MMI-0500] ?
[out] 43

[in] Request: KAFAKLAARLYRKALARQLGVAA [MMI-0400]
[out] 33

[in] Request: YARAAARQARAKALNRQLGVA (Mammal) [MMI-0200]
[out] 84

[in] Request: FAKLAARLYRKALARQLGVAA [MMI-0300]
[out] 40

[in] Request: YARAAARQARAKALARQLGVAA [MMI-0100]
[out] 77

###

- target or test system: STK33(h) (Homo sapiens)
- Construct: purchased Millipore
- Sequence (Q9BYT3 whole entry): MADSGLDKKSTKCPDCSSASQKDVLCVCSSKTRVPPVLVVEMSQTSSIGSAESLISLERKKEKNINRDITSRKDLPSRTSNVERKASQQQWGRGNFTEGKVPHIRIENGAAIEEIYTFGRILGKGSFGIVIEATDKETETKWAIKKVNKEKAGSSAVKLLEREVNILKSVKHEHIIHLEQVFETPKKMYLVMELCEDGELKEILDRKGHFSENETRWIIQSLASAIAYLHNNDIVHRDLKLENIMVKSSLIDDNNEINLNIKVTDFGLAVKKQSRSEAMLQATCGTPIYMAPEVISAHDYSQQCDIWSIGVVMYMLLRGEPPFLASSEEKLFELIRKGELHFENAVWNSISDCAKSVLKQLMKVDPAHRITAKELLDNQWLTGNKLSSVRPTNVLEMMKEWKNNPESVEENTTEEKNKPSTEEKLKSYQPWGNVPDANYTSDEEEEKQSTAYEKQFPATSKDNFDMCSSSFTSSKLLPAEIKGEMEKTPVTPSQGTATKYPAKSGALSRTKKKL
- protocol notes: Kinase Profiling Assay
- Assay type: biochemical
- experimental context: peptide 100 μM
No end group written: not given here.
Would you mind telling me the reported % activity of each entry?
Give the value in % but do not write % after it.

[in] % activity for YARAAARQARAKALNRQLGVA (Mammal) [MMI-0200] ?
[out] 98

[in] Request: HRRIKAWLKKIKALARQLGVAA (Mammal) [MMI-0500]
[out] 16

[in] Request: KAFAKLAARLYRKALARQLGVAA [MMI-0400]
[out] 52

[in] Request: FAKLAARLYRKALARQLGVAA [MMI-0300]
[out] 45

[in] Request: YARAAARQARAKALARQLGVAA [MMI-0100]
[out] 99

###

Would you mind telling me the reported % activity of each entry?
- target or test system: BrSK1(h) (Homo sapiens, UniProt Q8TDC3)
- Sequence (Q8TDC3 1-778): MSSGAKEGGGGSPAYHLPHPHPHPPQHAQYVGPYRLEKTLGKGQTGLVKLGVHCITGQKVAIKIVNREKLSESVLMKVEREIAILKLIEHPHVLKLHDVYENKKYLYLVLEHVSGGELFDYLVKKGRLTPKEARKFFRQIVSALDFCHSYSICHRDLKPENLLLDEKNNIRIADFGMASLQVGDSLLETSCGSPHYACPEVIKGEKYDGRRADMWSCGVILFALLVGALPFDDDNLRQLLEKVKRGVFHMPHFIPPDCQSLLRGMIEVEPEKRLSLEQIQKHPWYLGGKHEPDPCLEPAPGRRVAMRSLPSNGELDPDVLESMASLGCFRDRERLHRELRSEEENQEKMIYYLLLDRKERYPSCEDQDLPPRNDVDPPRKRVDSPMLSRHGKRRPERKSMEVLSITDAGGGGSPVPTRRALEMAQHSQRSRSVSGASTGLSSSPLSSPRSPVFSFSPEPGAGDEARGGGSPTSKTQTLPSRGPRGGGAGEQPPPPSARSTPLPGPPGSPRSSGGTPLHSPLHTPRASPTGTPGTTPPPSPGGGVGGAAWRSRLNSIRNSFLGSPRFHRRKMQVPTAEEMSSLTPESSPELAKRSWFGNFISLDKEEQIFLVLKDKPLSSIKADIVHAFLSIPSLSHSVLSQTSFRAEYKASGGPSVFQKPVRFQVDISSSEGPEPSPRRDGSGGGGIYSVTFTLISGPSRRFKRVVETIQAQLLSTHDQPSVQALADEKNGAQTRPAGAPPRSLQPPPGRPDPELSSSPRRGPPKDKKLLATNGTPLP
- protocol notes: Kinase Profiling Assay
- Type: biochemical
- experimental context: peptide 100 μM
- Protocol: Every kinase activity measurement was conducted in duplicate. Specifically, in these assays, a positively charged substrate is phosphorylated with a radiolabeled phosphate group from an ATP if the kinase is not inhibited by an inhibitor peptide. The positively charged substrate then is attracted to a negatively charged filter membrane, quantified with a scintillation counter, and compared to a 100% activity control. […]
No end group written: not given here.
Give the value in % but do not write % after it.

[in] % activity for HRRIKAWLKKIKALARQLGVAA (Mammal) [MMI-0500] ?
[out] 72

[in] Request: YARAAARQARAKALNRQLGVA (Mammal) [MMI-0200]
[out] 93

[in] Request: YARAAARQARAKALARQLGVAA [MMI-0100]
[out] 100

[in] Request: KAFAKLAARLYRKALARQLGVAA [MMI-0400]
[out] 76

[in] Request: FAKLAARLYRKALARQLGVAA [MMI-0300]
[out] 67

###

- target or test system: NEK6(h) (Homo sapiens)
- Construct: purchased Millipore
- Sequence (Q9HC98 whole entry): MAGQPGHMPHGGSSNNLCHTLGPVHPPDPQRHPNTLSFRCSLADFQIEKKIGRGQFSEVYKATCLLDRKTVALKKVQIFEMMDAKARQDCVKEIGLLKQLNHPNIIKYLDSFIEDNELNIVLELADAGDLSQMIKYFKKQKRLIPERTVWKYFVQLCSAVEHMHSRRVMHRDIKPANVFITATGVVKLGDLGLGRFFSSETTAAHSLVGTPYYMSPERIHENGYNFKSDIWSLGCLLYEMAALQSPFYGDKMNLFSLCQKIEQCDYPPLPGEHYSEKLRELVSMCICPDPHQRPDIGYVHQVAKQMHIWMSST
- protocol notes: Kinase Profiling Assay
- Assay type: biochemical
- experimental context: peptide 100 μM
assay endpoint: % activity (%)
Give the value in % but do not write % after it.

[in] % activity for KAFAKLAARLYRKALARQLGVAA [MMI-0400] ?
[out] 85

[in] Request: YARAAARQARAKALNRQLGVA (Mammal) [MMI-0200]
[out] 98

[in] Request: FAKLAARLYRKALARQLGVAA [MMI-0300]
[out] 82

[in] Request: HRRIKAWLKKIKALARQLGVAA (Mammal) [MMI-0500]
[out] 49

###

Would you mind telling me the reported % activity of each entry?
- target or test system: PKCβII(h) (Homo sapiens)
- Sequence (P05771 1-673 isoform P05771-2): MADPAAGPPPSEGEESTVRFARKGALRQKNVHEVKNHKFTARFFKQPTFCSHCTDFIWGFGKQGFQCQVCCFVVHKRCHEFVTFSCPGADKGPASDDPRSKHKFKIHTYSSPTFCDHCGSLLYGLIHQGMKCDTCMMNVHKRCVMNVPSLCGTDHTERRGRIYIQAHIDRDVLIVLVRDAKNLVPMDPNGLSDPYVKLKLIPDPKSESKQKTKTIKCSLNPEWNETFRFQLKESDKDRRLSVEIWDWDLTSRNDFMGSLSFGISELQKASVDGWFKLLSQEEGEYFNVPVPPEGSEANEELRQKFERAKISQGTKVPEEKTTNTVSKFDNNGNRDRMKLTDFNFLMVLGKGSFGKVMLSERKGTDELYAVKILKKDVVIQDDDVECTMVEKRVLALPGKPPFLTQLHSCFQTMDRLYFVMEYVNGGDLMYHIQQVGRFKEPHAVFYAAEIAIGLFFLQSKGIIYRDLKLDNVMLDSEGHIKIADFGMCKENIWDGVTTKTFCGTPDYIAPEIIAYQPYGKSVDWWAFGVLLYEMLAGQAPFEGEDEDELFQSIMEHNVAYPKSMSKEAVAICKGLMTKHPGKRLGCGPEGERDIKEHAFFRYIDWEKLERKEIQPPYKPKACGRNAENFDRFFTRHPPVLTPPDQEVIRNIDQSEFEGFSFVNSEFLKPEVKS
- protocol notes: Kinase Profiling Assay
- Format: biochemical
- experimental context: peptide 100 μM
Give the value in % but do not write % after it.

[in] State its % activity on PKCβII(h) (Homo sapiens): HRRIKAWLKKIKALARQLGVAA (Mammal) [MMI-0500]
[out] 3

[in] Request: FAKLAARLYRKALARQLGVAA [MMI-0300]
[out] 82

[in] Request: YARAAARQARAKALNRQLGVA (Mammal) [MMI-0200]
[out] 100

[in] Request: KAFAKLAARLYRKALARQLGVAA [MMI-0400]
[out] 75
